System: PANC-1
experiment description: SRB colorimetric cell growth inhibition assay, PANC-1
Assay type: cell-based
assay context: Homo sapiens, PANC-1, read-out: LC50 PANC-1, PANC-1; cell killing (cytotoxic effect)
value kind: CC50 (µM)
Answer format: numeric, µM implied, no suffix.

Noted for `COc1cc(-c2c3n(c4c(=O)oc5cc(OC(=O)[C@@H]6CCCN6)c(OC)cc5c24)CCc2cc(OC(=O)[C@@H]4CCCN4)c(OC)cc2-3)ccc1OC(=O)[C@@H]1CCCN1` : its CC50 reads 8.81

Noted for COc1cc(-c2c3c4cc(OC)c(O)cc4oc(=O)c3n3ccc4cc(O)c(OC)cc4c23)ccc1O [Compound 3, lamellarin D, reference compound] : its CC50 reads 20

Noted for `COc1cc(-c2c3c4cc(OC)c(OC(=O)[C@@H](N)C(C)C)cc4oc(=O)c3n3ccc4c(OC(=O)[C@@H](N)C(C)C)c(OC)c(OC)cc4c23)ccc1OC(=O)[C@@H](N)C(C)C` : its CC50 reads 10.7

---

System: LoVo-Dox
experiment description: SRB colorimetric cell growth inhibition assay, LoVo-Dox (MDR)
Format: cell-based
assay context: Homo sapiens, LOVO-DOX; GI=growth inhibition; read-out: GI50 LOVO-DOX
Exercise: state measured GI50 for each of the compounds provided.
Answer format: numeric, nM implied, no suffix.

Noted for COc1cc(-c2c3c4cc(OC)c(OC(=O)[C@@H](N)CO)cc4oc(=O)c3n3ccc4c(OC(=O)[C@@H](N)CO)c(OC)c(OC)cc4c23)ccc1OC(=O)[C@@H](N)CO [Compound 9] : its GI50 reads 388

Noted for COc1cc(-c2c3c4cc(OC)c(OC(=O)CCCCCN)cc4oc(=O)c3n3ccc4c(OC(=O)CCCCCN)c(OC)c(OC)cc4c23)ccc1OC(=O)CCCCCN [Compound 193] : its GI50 reads 313

Noted for COc1cc2ccn3c(c(-c4ccc(OC(=O)[C@H](C)N)c(OC)c4)c4c5cc(OC)c(OC(=O)[C@H](C)N)cc5oc(=O)c43)c2cc1OC [Compound 20] : its GI50 reads 525

Noted for COc1cc(-c2c3c4cc(OC)c(OC(=O)[C@H](N)C(C)C)cc4oc(=O)c3n3ccc4c(OC(=O)[C@H](N)C(C)C)c(OC)c(OC)cc4c23)ccc1OC(=O)[C@H](N)C(C)C [Compound 43] : its GI50 reads 937

Noted for COc1cc(-c2c3n(c4c(=O)oc5cc(OC(=O)[C@H](Cc6c[nH]c7ccccc67)NC(=O)OC(C)(C)C)c(OC)cc5c24)CCc2cc(OC(=O)[C@H](Cc4c[nH]c5ccccc45)NC(=O)OC(C)(C)C)c(OC)cc2-3)ccc1OC(=O)[C@H](Cc1c[nH]c2ccccc12)NC(=O)OC(C)(C)C [Compound 29] : its GI50 reads 7350

Noted for COc1cc(-c2c3n(c4c(=O)oc5cc(OC(=O)[C@@H](N)C(C)C)c(OC)cc5c24)CCc2cc(OC(=O)[C@@H](N)C(C)C)c(OC)cc2-3)ccc1OC(=O)[C@@H](N)C(C)C [Compound 37] : its GI50 reads 2100

---

Exercise: state measured GI50 for each of the compounds provided.
Test system: HT-29
experiment description: SRB colorimetric cell growth inhibition assay, HT-29
Format: cell-based
assay context: Homo sapiens, HT-29, HT-29; GI=growth inhibition; read-out: GI50 HT-29
Answer format: numeric, nM implied, no suffix.

Short answer on HT-29 for COc1cc(-c2c3c4cc(OC)c(OC(=O)[C@H](C)N)cc4oc(=O)c3n3ccc4cc(OC(=O)[C@H](C)N)c(OC)cc4c23)ccc1OC(=O)[C@H](C)N [Compound 199] , GI50: 2140

Short answer on HT-29 for COc1cc(-c2c3n(c4c(=O)oc5cc(OC(=O)[C@@H](N)C(C)C)c(OC)cc5c24)CCc2c-3cc(OC)c(OC)c2OC(=O)[C@@H](N)C(C)C)ccc1OC(=O)[C@@H](N)C(C)C [Compound 128] , GI50: 1950

Short answer on HT-29 for COc1cc(-c2c3c4cc(OC)c(OC(=O)[C@H](C)N)cc4oc(=O)c3n3ccc4cc(OC(=O)[C@H](C)N)c(OC)cc4c23)ccc1OC(=O)[C@H](C)N [Compound 40] , GI50: 3570

---

Exercise: state measured GI50 for each of the compounds provided.
Tested on: IGROV-ET
experiment description: SRB colorimetric cell growth inhibition assay, IGROV-ET (ET-743 resistant)
Assay type: cell-based
assay context: Homo sapiens, IGROV-ET; GI=growth inhibition; read-out: GI50 IGROV-ET
Protocol: The finality of these assays is to interrupt the growth of an “in vitro” tumor cell culture by means a continued exhibition of the cells to the sample to be testing. A colorimetric type of assay, using sulforhodamine B (SRB) reaction has been adapted for a quantitative measurement of cell growth and viability (following the technique described by P. A. Skehan, et al., J. Natl. Cancer Inst. 1990, 82, 1107-1112). […] The values for mean +/− SD of data from triplicate wells are calculated. […]
Answer format: numeric, µM implied, no suffix.

Noted for `COc1cc2c(cc1OC)-c1c(-c3ccc(OC(=O)CCc4ccccc4)c(OC)c3)c3c4cc(OC)c(OC(=O)CCc5ccccc5)cc4oc(=O)c3n1CC2` : its GI50 reads 11.7

Noted for `COc1cc(-c2c3n(c4c(=O)oc5cc(OC(=O)[C@@H]6CCCN6)c(OC)cc5c24)CCc2c-3cc(OC)c(OC)c2OC(=O)[C@@H]2CCCN2)ccc1OC(=O)[C@@H]1CCCN1` : its GI50 reads 0.876

Noted for `COc1cc(-c2c3n(c4c(=O)oc5cc(OC(=O)c6cc(F)c(F)c(F)c6F)c(OC)cc5c24)CCc2c-3cc(OC)c(OC)c2OC(=O)c2cc(F)c(F)c(F)c2F)ccc1OC(=O)c1cc(F)c(F)c(F)c1F` : its GI50 reads 9.44

---

Test system: PANC-1
experiment description: SRB colorimetric cell growth inhibition assay, PANC-1
Type: cell-based
assay context: Homo sapiens, PANC-1, PANC-1; GI=growth inhibition; read-out: GI50 PANC-1
Friendly reminder: GI50 below 700 nM is Yes, at or above is No.

INPUT: For this compound, is GI50 lower than 700 nM? `COc1cc(-c2c3c4cc(OC)c(OC(=O)[C@H](C)NC(=O)OC(C)(C)C)cc4oc(=O)c3n3ccc4c(OC(=O)[C@H](C)NC(=O)OC(C)(C)C)c(OC)c(OC)cc4c23)ccc1OC(=O)[C@H](C)NC(=O)OC(C)(C)C`
OUTPUT: No

INPUT: For this compound, is GI50 lower than 700 nM? `COc1cc(-c2c3c4cc(OC)c(OC(=O)[C@@H](N)CO)cc4oc(=O)c3n3ccc4c(OC(=O)[C@@H](N)CO)c(OC)c(OC)cc4c23)ccc1OC(=O)[C@@H](N)CO`
OUTPUT: Yes

INPUT: For this compound, is GI50 lower than 700 nM? `COc1cc(-c2c3c4cc(OC)c(OC(C)C)cc4oc(=O)c3n3ccc4c(OC(C)C)c(OC)c(OC)cc4c23)ccc1OC(C)C`
OUTPUT: No

INPUT: For this compound, is GI50 lower than 700 nM? `COc1cc(-c2c3n(c4c(=O)oc5cc(OC(=O)[C@@H]6CCCN6)c(OC)cc5c24)CCc2c-3cc(OC)c(OC)c2OC(=O)[C@@H]2CCCN2)ccc1OC(=O)[C@@H]1CCCN1`
OUTPUT: No

INPUT: For this compound, is GI50 lower than 700 nM? `COc1cc2c(cc1O)oc(=O)c1c2c(-c2cccc([N+](=O)[O-])c2)c2c3cc(OC)c(O)cc3ccn21`
OUTPUT: Yes

INPUT: For this compound, is GI50 lower than 700 nM? `COc1cc(-c2c3n(c4c(=O)oc5cc(OC(=O)[C@@H](N)C(C)C)c(OC)cc5c24)CCc2cc(OC(=O)[C@@H](N)C(C)C)c(OC)cc2-3)ccc1OC(=O)[C@@H](N)C(C)C`
OUTPUT: No

INPUT: For this compound, is GI50 lower than 700 nM? `COc1cc(-c2c3c4cc(OC)c(OC(=O)[C@@H]5CCCN5)cc4oc(=O)c3n3ccc4c(OC(=O)[C@@H]5CCCN5)c(OC)c(OC)cc4c23)ccc1OC(=O)[C@@H]1CCCN1`
OUTPUT: No

---

System: IGROV-ET
experiment description: SRB colorimetric cell growth inhibition assay, IGROV-ET (ET-743 resistant)
Format: cell-based
assay context: Homo sapiens, IGROV-ET; GI=growth inhibition; read-out: GI50 IGROV-ET
value kind: GI50 (nM)
Answer format: numeric, nM implied, no suffix.

Short answer on IGROV-ET for `COc1cc(-c2c3n(c4c(=O)oc5cc(OC(=O)[C@@H](N)C(C)C)c(OC)cc5c24)CCc2cc(OC(=O)[C@@H](N)C(C)C)c(OC)cc2-3)ccc1OC(=O)[C@@H](N)C(C)C` , GI50: 359

Short answer on IGROV-ET for `COc1cc(-c2c3c4cc(OC)c(OC(=O)C[C@H](N)C(C)C)cc4oc(=O)c3n3ccc4cc(OC(=O)C[C@H](N)C(C)C)c(OC)cc4c23)ccc1OC(=O)C[C@H](N)C(C)C` , GI50: 29.7

Short answer on IGROV-ET for `COc1cc(-c2c3c4cc(OC)c(OC(C)C)cc4oc(=O)c3n3ccc4c(OC(C)C)c(OC)c(OC)cc4c23)ccc1OC(C)C` , GI50: 10400
